# PROTOCOL SUMMARY: viability loss of HPDE-C7K cells – cell-based, fluorescence, HTS, primary screen (AID 431);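 further: 0% = DMSO solvent wells and 100% = doxorubicin-treated wells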
# CONDITION INFO: HPDE-C7K KRASV12 cells, Alamar Blue viability, 48 h; at 10 µM; hits give high values
The campaign covered roughly 63,000 compounds. About 1,100 (1.7%) were called active. The sample as a whole holds a higher share of actives than the screen did. Results with a measured potency or affinity are listed apart.
QUANTITY: cytotoxicity (%)
Note: unit % is implicit; provide only the numeric part.

Any idea what its cytotoxicity is? The compound is COc1ccc(CCNC(=O)c2c(N)n(CCN3CCOCC3)c3nc4ccccc4nc23)cc1
76.9

Any idea what its cytotoxicity is? The compound is CCCCNC(=O)c1c(N)n(CCCOC)c2nc3ccccc3nc12
47.2

Any idea what its cytotoxicity is? The compound is CCCCCn1c(N)c(C(=O)NCCN2CCOCC2)c2nc3ccccc3nc21
6.4

Any idea what its cytotoxicity is? The compound is C=CCN1C(=O)C2(C(C(=O)OCC)=C(N)Oc3ccccc32)C2=C1CCCC2=O (stereo not drawn)
-6.6

Any idea what its cytotoxicity is? The compound is Cc1ccc2c(c1)C(c1ccccc1)NCC(=O)N2 (stereo not drawn)
2.7

Any idea what its cytotoxicity is? The compound is CCCCc1nc(N2CCNCC2)c(C#N)c2c1CSC(C)(C)C2
71.5

Any idea what its cytotoxicity is? The compound is O=C1NC(=O)C2(Cc3ccccc3N3CCCC32)C(=O)N1c1ccccc1 (stereo not drawn)
-2.3

Any idea what its cytotoxicity is? The compound is CCCCCCn1c(N)c(C(=O)NCCN2CCOCC2)c2nc3ccccc3nc21
86.3

Any idea what its cytotoxicity is? The compound is O=P1(NC2CCCC2)COc2ccccc2OC1
-11.9

Any idea what its cytotoxicity is? The compound is CN(C)CCc1nc2ccccc2c(=O)n1-c1ccccc1
11.7

Any idea what its cytotoxicity is? The compound is COc1ccc(-n2c(SC)nc3ccccc3c2=O)cc1
-4.7

Any idea what its cytotoxicity is? The compound is O=P(OCC(F)(F)C(F)F)(N1CCOCC1)N1CCOCC1
-6.6

Any idea what its cytotoxicity is? The compound is O=C1CN=C(c2ccccc2)c2oc3ccc(Br)cc3c2N1
-15.6

Any idea what its cytotoxicity is? The compound is COc1cccc(OC)c1C1=NCC(=O)Nc2c1oc1ccc(Br)cc21
56.7

Any idea what its cytotoxicity is? The compound is CCC(=NCCC1=CCCCC1)c1c(O)[nH]c(=O)[nH]c1=O
22.3

Any idea what its cytotoxicity is? The compound is O=c1c2ccccc2nc(CSc2ncnc3nc[nH]c23)n1-c1ccccc1
64.8

Any idea what its cytotoxicity is? The compound is CC(C)[C@H]1C(=O)N2CCC[C@H]2[C@]2(O)O[C@](NC(=O)[C@@H]3C=C4c5cccc6[nH]cc(c56)C[C@H]4N(C)C3)(C(C)C)C(=O)N12
-1.3

Any idea what its cytotoxicity is? The compound is CC(C)CCOC(=O)c1c(N)n(CC2CCCO2)c2nc3ccccc3nc12 (stereo not drawn)
26.1

Any idea what its cytotoxicity is? The compound is O=C(C(Cc1ccccc1)NS(=O)(=O)c1ccc(F)cc1)N1CCC2(CC1)OCCO2 (stereo not drawn)
10.2

Any idea what its cytotoxicity is? The compound is CCOC(=O)c1c(N)n(CCN2CCCCC2)c2nc3ccccc3nc12
1.7

Any idea what its cytotoxicity is? The compound is CCOc1ccc(-n2c(CC)nc3ccccc3c2=O)cc1
1.5

Any idea what its cytotoxicity is? The compound is CCCCn1c(N)c(C(=O)OCC2CCCO2)c2nc3ccccc3nc21 (stereo not drawn)
34.2

Any idea what its cytotoxicity is? The compound is CCCCn1c(O)c(C(CC)=Nc2cccc(C(=O)O)c2)c(=O)[nH]c1=O
-13.6

Attribution: PubChem BioAssay AID431
